# Species on record: Rattus norvegicus
# PROCEDURE DETAILS: DrugMatrix - Regimen: Daily Repeat
# Format: toxicity, organism-based, Sprague-Dawley
# Parameters: regimen Daily Repeat, gender Male, age 6-8 weeks
# RUN PARAMETERS: in vivo, po, 0 mg/kg, 120 h, tissue Blood, route oral GAVAGE, dose level Control, time 5 day, vehicle .5 % CMC
Would you mind telling me the reported ABSOLUTE MONOCYTE of each entry?
Give the quantity in CELLS/uL, number only.

Query: Determine from records and report ABSOLUTE MONOCYTE for CCN1CCCC1CNC(=O)c1cc(S(N)(=O)=O)ccc1OC (configuration not stated) [SULPIRIDE]
Response: 32

Query: Determine from records and report ABSOLUTE MONOCYTE for CC(=O)Nc1ccc2c(c1)Cc1ccccc1-2 [2-ACETYLAMINOFLUORENE]
Response: 139.83

Query: Determine from records and report ABSOLUTE MONOCYTE for NCC(CC(=O)O)c1ccc(Cl)cc1 (configuration not stated) [BACLOFEN]
Response: 139.83

Query: Determine from records and report ABSOLUTE MONOCYTE for CC(C)(C#N)c1cc(Cn2cncn2)cc(C(C)(C)C#N)c1 [ANASTROZOLE]
Response: 60.5

Query: Determine from records and report ABSOLUTE MONOCYTE for NC(=O)CN1CCCC1=O
Response: 303.83

Query: Determine from records and report ABSOLUTE MONOCYTE for Cl.NC[C@H]1CC[C@H](C(=O)Oc2ccc(CCC(=O)O)cc2)CC1 [CETRAXATE HYDROCHLORIDE]
Response: 276

Query: Determine from records and report ABSOLUTE MONOCYTE for CN(C)CCOC(c1ccccc1)c1ccccc1.Cn1c(=O)c2[nH]c(Cl)nc2n(C)c1=O [DIMENHYDRINATE]
Response: 173

Query: Determine from records and report ABSOLUTE MONOCYTE for NC(=O)NC(=O)Cc1ccccc1 [PHENACEMIDE]
Response: 124

Query: Determine from records and report ABSOLUTE MONOCYTE for CCOc1cc(N)c(Cl)cc1C(=O)NCC1CN(Cc2ccc(F)cc2)CCO1 (configuration not stated) [MOSAPRIDE]
Response: 139.83

Query: Determine from records and report ABSOLUTE MONOCYTE for Cc1cc2c(s1)Nc1ccccc1N=C2N1CCN(C)CC1 [OLANZAPINE]
Response: 102.83

Query: Determine from records and report ABSOLUTE MONOCYTE for COc1cc(/C=C/C(=O)O)ccc1O [FERULATE]
Response: 276

Query: Determine from records and report ABSOLUTE MONOCYTE for O=C(O)CCc1nc(-c2ccccc2)c(-c2ccccc2)o1 [OXAPROZIN]
Response: 32

----------
# Organism: Rattus norvegicus
# PROCEDURE DETAILS: DrugMatrix - Regimen: Daily Repeat
# Assay type: toxicity, organism-based, Sprague-Dawley
# Design: regimen Daily Repeat, gender Male, age 6-8 weeks
# RUN PARAMETERS: in vivo, po, 0 mg/kg, 72 h, tissue Blood, route oral GAVAGE, dose level Control, time 3 day, vehicle .5 % CMC
Note to self: values exactly at 2% are y. So MONOCYTE at or above 2% is y, below is n.

Query: Given NC(=O)CN1CCCC1=O , state whether its MONOCYTE is at least 2%.
Response: n

Query: Given CC(C)NCC(O)COc1ccc(CC(N)=O)cc1 (stereo unspecified) , state whether its MONOCYTE is at least 2%.
Response: y

Query: Given Nc1ccc(C(=O)O)c(O)c1 , state whether its MONOCYTE is at least 2%.
Response: n

Query: Given CC(C)Cc1ccc([C@H](C)C(=O)O)cc1 , state whether its MONOCYTE is at least 2%.
Response: y

Query: Given CN(C)CCC=C1c2ccccc2COc2ccccc21 [DOXEPIN] , state whether its MONOCYTE is at least 2%.
Response: y

Query: Given COc1cc(/C=C/C(=O)O)ccc1O [FERULATE] , state whether its MONOCYTE is at least 2%.
Response: y

Query: Given Cc1cc2c(s1)Nc1ccccc1N=C2N1CCN(C)CC1 , state whether its MONOCYTE is at least 2%.
Response: n

Query: Given CCN1C[C@]2(COC)[C@H](O)C[C@H](OC)[C@@]34[C@@H]5C[C@@]6(O)[C@H](OC(=O)c7ccccc7)[C@@H]5[C@@](OC(C)=O)([C@@H]([C@H](OC)[C@H]23)[C@@H]14)[C@@H](O)[C@@H]6OC , state whether its MONOCYTE is at least 2%.
Response: y

Query: Given NCC(CC(=O)O)c1ccc(Cl)cc1 (stereo unspecified) , state whether its MONOCYTE is at least 2%.
Response: n

Query: Given NC(=O)NC(=O)Cc1ccccc1 [PHENACEMIDE] , state whether its MONOCYTE is at least 2%.
Response: n

Query: Given CCN1CCN(c2cc3c(cc2F)c(=O)c(C(=O)O)cn3C2CC2)CC1 , state whether its MONOCYTE is at least 2%.
Response: n

----------
# Species on record: Rattus norvegicus
# PROCEDURE DETAILS: DrugMatrix - Regimen: Daily Repeat
# Type: toxicity, organism-based, Sprague-Dawley
# Parameters: regimen Daily Repeat, gender Male, age 6-8 weeks
# RUN PARAMETERS: in vivo, iv, 0 mg/kg, […], tissue Blood, dose level Control, time 14 day, vehicle 100 % SALINE
REPORTED ENDPOINT: ABSOLUTE MONOCYTE (cells/µL)
Give the quantity in cells/µL, number only.

Query: Determine from records and report ABSOLUTE MONOCYTE for CC(=O)[C@]1(O)Cc2c(O)c3c(c(O)c2[C@@H](O[C@H]2C[C@H](N)[C@H](O)[C@H](C)O2)C1)C(=O)c1ccccc1C3=O [IDARUBICIN]
Response: 760

----------
# Species: Rattus norvegicus
# PROCEDURE DETAILS: DrugMatrix - Regimen: Daily Repeat
# Type: toxicity, organism-based, Sprague-Dawley
# Design: regimen Daily Repeat, gender Male, age 6-8 weeks
# RUN PARAMETERS: in vivo, po, 0 mg/kg, 120 h, tissue Blood, route oral GAVAGE, dose level Control, time 5 day, vehicle .5 % CMC
Note to self: values exactly at 90% are met. So LYMPHOCYTE at or above 90% is met, below is not met.

Query: Given CCN1C[C@]2(COC)[C@H](O)C[C@H](OC)[C@@]34[C@@H]5C[C@@]6(O)[C@H](OC(=O)c7ccccc7)[C@@H]5[C@@](OC(C)=O)([C@@H]([C@H](OC)[C@H]23)[C@@H]14)[C@@H](O)[C@@H]6OC , state whether its LYMPHOCYTE is at least 90%.
Response: not met

Query: Given Nc1ccc(C(=O)O)c(O)c1 , state whether its LYMPHOCYTE is at least 90%.
Response: not met

Query: Given CN(C)CCC=C1c2ccccc2COc2ccccc21 [DOXEPIN] , state whether its LYMPHOCYTE is at least 90%.
Response: not met

Query: Given O=C(O)CCc1nc(-c2ccccc2)c(-c2ccccc2)o1 , state whether its LYMPHOCYTE is at least 90%.
Response: met

Query: Given COc1cc(NC(C)CCCN)c2ncccc2c1 (stereo not drawn) , state whether its LYMPHOCYTE is at least 90%.
Response: not met

----------
# Organism: Rattus norvegicus
# PROCEDURE DETAILS: DrugMatrix - Regimen: Daily Repeat
# Assay type: toxicity, organism-based, Sprague-Dawley
# Design: regimen Daily Repeat, gender Male, age 6-8 weeks
# RUN PARAMETERS: in vivo, po, 0 mg/kg, 120 h, tissue Plasma, route oral GAVAGE, dose level Control, time 5 day, vehicle .5 % CMC
REPORTED ENDPOINT: GLUCOSE (mg/dL)
Give the quantity in mg/dL, number only.

Query: Determine from records and report GLUCOSE for Cl.NC[C@H]1CC[C@H](C(=O)Oc2ccc(CCC(=O)O)cc2)CC1 [CETRAXATE HYDROCHLORIDE]
Response: 161.67

Query: Determine from records and report GLUCOSE for CC(C)Cc1ccc([C@H](C)C(=O)O)cc1
Response: 196.83

Query: Determine from records and report GLUCOSE for NC(=O)NC(=O)Cc1ccccc1 [PHENACEMIDE]
Response: 172

Query: Determine from records and report GLUCOSE for COc1cc(NC(C)CCCN)c2ncccc2c1 (centres undefined)
Response: 177.33

----------
Would you mind telling me the reported HEMATOCRIT of each entry?
# Species on record: Rattus norvegicus
# PROCEDURE DETAILS: DrugMatrix - Regimen: Daily Repeat
# Type: toxicity, organism-based, Sprague-Dawley
# Design: regimen Daily Repeat, gender Male, age 6-8 weeks
# RUN PARAMETERS: in vivo, po, 0 mg/kg, 120 h, tissue Blood, route oral GAVAGE, dose level Control, time 5 day, vehicle 100 % WATER
Give the quantity in %, number only.

Query: Determine from records and report HEMATOCRIT for CN1C(=O)OC(C)(C)C1=O [TRIMETHADIONE]
Response: 36.48

Query: Determine from records and report HEMATOCRIT for CCC1(c2ccccc2)C(=O)NC(=O)NC1=O [PHENOBARBITAL]
Response: 33.53

Query: Determine from records and report HEMATOCRIT for Cc1cn([C@H]2C=C[C@@H](CO)O2)c(=O)[nH]c1=O [STAVUDINE]
Response: 34.72

Query: Determine from records and report HEMATOCRIT for C[N+](C)(C)CCOC(N)=O.[Cl-] [CARBACHOL]
Response: 34.72

Query: Determine from records and report HEMATOCRIT for NN [HYDRAZINE]
Response: 36.62

Query: Determine from records and report HEMATOCRIT for CC(Cl)(Cl)Cl [TRICHLOROETHANE]
Response: 36.48

Query: Determine from records and report HEMATOCRIT for CCN(CC)C(=S)SSC(=S)N(CC)CC
Response: 36.88

Query: Determine from records and report HEMATOCRIT for Cc1cc(C(C)(C)C)c(O)c(C)c1CC1=NCCN1 [OXYMETAZOLINE]
Response: 34.83

Query: Determine from records and report HEMATOCRIT for C1CCN2C[C@@H]3C[C@@H](CN4CCCC[C@@H]34)[C@H]2C1 [SPARTEINE]
Response: 36.48

Measured values drawn from ChEMBL document CHEMBL3885881 for this set.
